MEASUREMENT_TARGET: TYK2 (Homo sapiens (Human))
Sequence (P29597 897-1176): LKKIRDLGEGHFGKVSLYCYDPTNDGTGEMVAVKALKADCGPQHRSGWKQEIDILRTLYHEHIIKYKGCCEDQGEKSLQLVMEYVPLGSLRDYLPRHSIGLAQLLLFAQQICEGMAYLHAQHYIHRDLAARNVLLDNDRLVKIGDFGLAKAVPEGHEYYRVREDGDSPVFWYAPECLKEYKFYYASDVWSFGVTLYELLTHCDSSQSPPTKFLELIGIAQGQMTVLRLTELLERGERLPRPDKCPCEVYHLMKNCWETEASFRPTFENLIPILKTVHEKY
ASSAY_OVERVIEW: JAK Caliper Enzyme Assay at 1 mM ATP, TYK2
Type: biochemical
pIC50: −log10 of the molar value.
PROPERTY_LABEL: pIC50

1) N#CCC1(n2ccc(-c3nc(-c4cc[nH]n4)cc4ncccc34)n2)CC2(COC2)C1; 6.43
2) N#CC[C@]1(n2ccc(-c3nc(-c4cccc(O)n4)cc4ncccc34)n2)C[C@H](C#N)C1; 7.28
3) CO[C@H]1C[C@](CC#N)(n2ccc(-c3nc(-c4cc(CO)n[nH]4)cc4ncccc34)n2)C1; 7.23

====

MEASUREMENT_TARGET: JAK1 (Homo sapiens (Human), UniProt P23458)
Sequence (P23458 875-1153): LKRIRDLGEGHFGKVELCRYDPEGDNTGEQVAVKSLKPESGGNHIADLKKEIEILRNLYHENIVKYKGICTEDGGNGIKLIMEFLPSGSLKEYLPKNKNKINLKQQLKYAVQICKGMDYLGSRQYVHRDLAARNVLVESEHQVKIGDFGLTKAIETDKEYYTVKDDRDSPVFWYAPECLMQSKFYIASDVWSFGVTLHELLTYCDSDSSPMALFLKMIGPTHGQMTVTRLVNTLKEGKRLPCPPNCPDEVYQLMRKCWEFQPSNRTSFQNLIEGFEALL
ASSAY_OVERVIEW: JAK Caliper Enzyme Assay at 1 mM ATP, JAK1
Assay type: biochemical
Mark T only for IC50 values smaller than 700 nM; exact matches and larger values are F.

1. CC(C)(O)[C@H]1C[C@@](CC#N)(n2ccc(-c3nc(-c4cc[nH]n4)cc4ncccc34)n2)C1; F
2. N#CCC1(n2cc(-c3nc(-c4cnn(C5CCOCC5)c4)cc4ncccc34)cn2)CN(CC(F)(F)F)C1; T
3. CS(=O)(=O)N1CC(CC#N)(n2ccc(-c3nc(-c4cnn([C@H]5CCOC5)c4)cc4ncccc34)n2)C1; F
4. COc1cc(-c2cc3ncccc3c(-c3ccn(C4(CC#N)CN(S(C)(=O)=O)C4)n3)n2)ccn1; F
5. Cn1cc(-c2cc(-c3cnn(C4(CC#N)CC(C#N)C4)n3)c3cccnc3c2)cn1 (centres unmarked); T
6. CCn1cc(-c2cc3ncccc3c(-c3ccn(C4(CC#N)CN(S(C)(=O)=O)C4)n3)n2)ccc1=O; T
7. Cc1n[nH]cc1-c1cc2ncccc2c(-c2ccn([C@]3(CC#N)C[C@@H](C#N)C3)n2)n1; F
8. Cn1nc(-c2cc3ncccc3c(-c3ccn([C@]4(CC#N)C[C@@](C)(C#N)C4)n3)n2)cc1N; F
9. N#CCC1(n2ccc(-c3nc(-c4ccc5nncn5c4)cc4ncccc34)n2)CN(CC(F)(F)F)C1; F
10. CS(=O)(=O)N1CC(CC#N)(n2ccc(-c3nc(-c4ccccc4F)cc4ncccc34)n2)C1; F
11. N#CC[C@]1(n2ncc(-c3cc(-c4cc(CO)ns4)cc4ncccc34)n2)C[C@H](C#N)C1; F

====

MEASUREMENT_TARGET: JAK3 (Homo sapiens (Human))
Sequence (P52333 822-1111): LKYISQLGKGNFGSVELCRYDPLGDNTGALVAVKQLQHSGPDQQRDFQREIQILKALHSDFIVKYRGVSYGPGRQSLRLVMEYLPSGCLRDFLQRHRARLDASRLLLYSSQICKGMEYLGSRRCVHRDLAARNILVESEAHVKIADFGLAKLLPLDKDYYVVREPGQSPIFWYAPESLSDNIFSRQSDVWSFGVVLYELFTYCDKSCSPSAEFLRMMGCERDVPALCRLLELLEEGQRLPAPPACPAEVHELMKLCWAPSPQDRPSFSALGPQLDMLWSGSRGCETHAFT
ASSAY_OVERVIEW: JAK Caliper Enzyme Assay at 1 mM ATP, JAK3
Assay type: biochemical
The following molecules are shown together with reported IC50 values.
PROPERTY_LABEL: IC50

1. Cn1ccc(-c2cc(-c3cnn([C@]4(CC#N)C[C@@H](C#N)C4)n3)c3cccnc3c2)n1 [Example 312]; > 10 µM
2. Cn1cc(-c2cc3ncccc3c(-c3cnn(C4(CC#N)CN(CC(F)(F)F)C4)c3)n2)cn1 [Example 4]; 5.17 µM
3. CC(=O)NC1CC(CC#N)(n2ccc(-c3nc(-c4cc[nH]n4)cc4ncccc34)n2)C1 (stereo not drawn) [Example 32]; > 10 µM
4. N#CC[C@]1(n2ccc(-c3nc(-c4cc[nH]n4)cc4ncccc34)n2)C[C@@H](C(N)=O)C1 [Example 24]; > 10 µM
5. Cn1nc(-c2cc(-c3cnn([C@]4(CC#N)C[C@@H](C#N)C4)n3)c3cccnc3c2)cc1CO [Example 309]; > 10 µM
6. CS(=O)(=O)N1CC(CC#N)(n2ccc(-c3nc(-c4cnc5cn[nH]c5c4)cc4ncccc34)n2)C1 [Example 166]; > 10 µM
7. N#CC[C@]1(n2ncc(-c3cc(-c4ncc(CO)s4)cc4ncccc34)n2)C[C@H](C#N)C1 [Example 343]; > 10 µM
8. N#CC[C@]1(n2ncc(-c3cc(-c4cnn(CCO)c4)cc4ncccc34)n2)C[C@@H](C#N)C1 [Example 327]; 3.29 µM
9. N#CCC1(n2ccc(-c3nc(-c4ccnc(C(N)=O)c4)cc4ncccc34)n2)CN(CC(F)(F)F)C1 [Example 215]; > 10 µM
10. Cn1cc(-c2cc3ncccc3c(-c3ccn(C4(CC#N)CN(S(=O)(=O)C5CC5)C4)n3)n2)cn1 [Example 107]; > 10 µM
11. Cn1cc(-c2cc(-c3cnn(C4(CC#N)CC(C#N)C4)n3)c3cccnc3c2)cn1 (stereo not drawn) [Example 325]; 2.15 µM
12. Cn1cc(-c2cc3ncccc3c(-n3ccc(C4(CC#N)CN(CC(F)(F)F)C4)n3)n2)cn1 [Example 279]; > 10 µM
13. Cc1cc(-c2cc3ncccc3c(-c3ccn([C@]4(CC#N)C[C@@H](C#N)C4)n3)n2)nn1C [Example 58]; > 10 µM
14. N#CCC1(n2ncc(-c3cc(-c4cc[nH]n4)cc4ncccc34)n2)CN(S(N)(=O)=O)C1 [Example 300]; 3.32 µM
15. CNc1cc(-c2cc3ncccc3c(-c3ccn([C@]4(CC#N)C[C@@H](C#N)C4)n3)n2)nn1C [Example 70]; > 10 µM
